Recorded values, source a melting point compilation (Tetko et al.; mined from patent text by program, amines drawn as free bases though some values may be those of a salt).

Measurement name: melting point

>  <Molecule>
CCn1c(NC=O)nc(N2CCc3ccccc3CC2)c(C#N)c1=O

>  <Measurement>
> 200 °C

$$$$
>  <Molecule>
Cc1c(NC(=O)CC(C)(C)C)c(C)c2c(c1-c1nccs1)OCC2c1ccc(C(C)C)cc1 (stereo not given)

>  <Measurement>
164 to 166 °C

$$$$

Look at this molecule and give its reported melting point. CCCCN(C#N)C(=O)C(C)Oc1ccc(Oc2nc3ccc(Cl)cc3o2)cc1 (stereo not given) 91 to 92 °C

What about this molecule? C=C(C)Cn1c(=O)c2ccccc2n1C(=O)OCC 48 to 50 °C

What about this molecule? NCC(=O)N(N)c1ccc2ccccc2c1 147 to 148 °C
